Measured target: AKT1-E17K (Homo sapiens, UniProt P31749, E17K)
Construct: host or cells: HEK-293 (ATCC CRL-1573)
Sequence (P31749 whole entry E17K): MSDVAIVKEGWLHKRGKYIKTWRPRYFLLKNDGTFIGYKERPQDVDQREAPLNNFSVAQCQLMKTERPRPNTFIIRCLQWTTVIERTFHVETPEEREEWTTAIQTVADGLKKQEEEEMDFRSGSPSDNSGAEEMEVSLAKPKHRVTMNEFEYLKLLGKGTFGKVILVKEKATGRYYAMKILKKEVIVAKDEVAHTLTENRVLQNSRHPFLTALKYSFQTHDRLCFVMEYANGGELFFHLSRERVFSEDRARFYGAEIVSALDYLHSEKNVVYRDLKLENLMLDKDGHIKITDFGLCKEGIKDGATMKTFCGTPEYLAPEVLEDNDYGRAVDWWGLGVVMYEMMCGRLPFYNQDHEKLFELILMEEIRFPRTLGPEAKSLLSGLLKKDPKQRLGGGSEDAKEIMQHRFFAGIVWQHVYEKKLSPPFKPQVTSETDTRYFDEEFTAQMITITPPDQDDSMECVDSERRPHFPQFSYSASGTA
Test summary: NanoBRET Target Engagement (TE) Assay
Type: cell-based
Record form. Attribute: IC50. Fill in for each entry.

Hello, I am looking for reported IC50 with AKT1-E17K (Homo sapiens, UniProt P31749, E17K) for Nc1ncccc1-c1nc2ccc(-c3ccccc3F)nc2n1-c1ccc(CN2CCN(C(=O)c3ccc(O)c(C=O)c3)CC2)cc1 [Example 141] . Could you help?
15 to 60 nM

Hello, I am looking for reported IC50 with AKT1-E17K (Homo sapiens, UniProt P31749, E17K) for C[C@@H]1CN(Cc2ccc(-n3c(-c4cccnc4N)nc4ccc(-c5ccccc5)nc43)cc2)CCN1c1ccc(C=O)c(O)c1 [Example 104] . Could you help?
60 to 600 nM

Hello, I am looking for reported IC50 with AKT1-E17K (Homo sapiens, UniProt P31749, E17K) for C[C@H]1CN(Cc2ccc(-n3c(-c4cccnc4N)nc4ccc(-c5ccccc5)nc43)cc2)CCN1C(=O)c1ccc(O)c(C=O)c1 [Example 105] . Could you help?
60 to 600 nM

Hello, I am looking for reported IC50 with AKT1-E17K (Homo sapiens, UniProt P31749, E17K) for Nc1ncccc1-c1nc2ccc(-c3ccccc3)nc2n1-c1ccc(CN2CCC3(CCCN(C(=O)c4ccc(C=O)c(O)c4)C3)C2)cc1 (stereo not drawn) [Example 87] . Could you help?
60 to 600 nM

Hello, I am looking for reported IC50 with AKT1-E17K (Homo sapiens, UniProt P31749, E17K) for Nc1ncccc1-c1nc2ccc(-c3ccccc3)nc2n1-c1ccc(CN2CC3(C2)CN(C(=O)c2ccc(O)c(C=O)c2)C3)cc1 [Example 62] . Could you help?
< 15 nM

Hello, I am looking for reported IC50 with AKT1-E17K (Homo sapiens, UniProt P31749, E17K) for Nc1ncccc1-c1nc2ccc(-c3ccccc3)nc2n1-c1ccc(CN2CC3CCC(C2)N3C(=O)c2ccc(O)c(C=O)c2)cc1 [Example 110] . Could you help?
> 600 nM

* * *

Measured target: AKT1-E17K (Homo sapiens, UniProt P31749, E17K)
Test summary: NanoBRET Target Engagement (TE) Assay
Record form. Attribute: IC50. Fill in for each entry.

Which IC50 value is on record for Nc1ncccc1-c1nc2ccc(N3CCOCC3)nc2n1-c1ccc(CN2CCN(c3ccc(C=O)c(O)c3)CC2)cc1 [Example 31] ?
0.06 to 0.6 µM

Which IC50 value is on record for Nc1ncccc1-c1nc2ccc(-c3ccccc3)nc2n1-c1ccc(CN2CCC3(CCN(C(=O)c4ccc(O)c(C=O)c4)C3)C2)cc1 (stereo not shown) [Example 80] ?
0.06 to 0.6 µM

Which IC50 value is on record for Nc1ncccc1-c1nc2ccc(-c3ccc(F)cc3)nc2n1-c1ccc(CN2CCN(C(=O)c3ccc(O)c(C=O)c3)CC2)cc1 [Example 143] ?
0.06 to 0.6 µM

Which IC50 value is on record for CN(C(=O)c1ccc(O)c(C=O)c1)C1CCN(Cc2ccc(-n3c(-c4cccnc4N)nc4ccc(-c5ccccc5)nc43)cc2)CC1 [Example 55] ?
0.015 to 0.06 µM

Which IC50 value is on record for Nc1ncccc1-c1nc2ccc(-c3ccccc3)nc2n1-c1ccc(CN2CCC3(CC2)CCN(C(=O)c2ccc(C=O)c(O)c2)CC3)cc1 [Example 152] ?
0.06 to 0.6 µM

Which IC50 value is on record for Nc1ncccc1-c1nc2ccc(-c3ccccc3)nc2n1-c1ccc(CN2CC(NC(=O)c3ccc(C=O)c(O)c3)C2)cc1 [Example 65] ?
0.015 to 0.06 µM

Which IC50 value is on record for Nc1ncccc1-c1nc2ccc(-c3ccccc3)nc2n1-c1ccc(CN2CCC3(CC2)CN(C(=O)c2ccc(O)c(C=O)c2)C3)cc1 [Example 67] ?
0.06 to 0.6 µM

Entry source: patent US20260365647A1
